- target: Phosphatidylinositol 4,5-bisphosphate 3-kinase catalytic subunit alpha isoform (Homo sapiens, UniProt P42336)
- Sequence (P42336 whole entry, canonical isoform): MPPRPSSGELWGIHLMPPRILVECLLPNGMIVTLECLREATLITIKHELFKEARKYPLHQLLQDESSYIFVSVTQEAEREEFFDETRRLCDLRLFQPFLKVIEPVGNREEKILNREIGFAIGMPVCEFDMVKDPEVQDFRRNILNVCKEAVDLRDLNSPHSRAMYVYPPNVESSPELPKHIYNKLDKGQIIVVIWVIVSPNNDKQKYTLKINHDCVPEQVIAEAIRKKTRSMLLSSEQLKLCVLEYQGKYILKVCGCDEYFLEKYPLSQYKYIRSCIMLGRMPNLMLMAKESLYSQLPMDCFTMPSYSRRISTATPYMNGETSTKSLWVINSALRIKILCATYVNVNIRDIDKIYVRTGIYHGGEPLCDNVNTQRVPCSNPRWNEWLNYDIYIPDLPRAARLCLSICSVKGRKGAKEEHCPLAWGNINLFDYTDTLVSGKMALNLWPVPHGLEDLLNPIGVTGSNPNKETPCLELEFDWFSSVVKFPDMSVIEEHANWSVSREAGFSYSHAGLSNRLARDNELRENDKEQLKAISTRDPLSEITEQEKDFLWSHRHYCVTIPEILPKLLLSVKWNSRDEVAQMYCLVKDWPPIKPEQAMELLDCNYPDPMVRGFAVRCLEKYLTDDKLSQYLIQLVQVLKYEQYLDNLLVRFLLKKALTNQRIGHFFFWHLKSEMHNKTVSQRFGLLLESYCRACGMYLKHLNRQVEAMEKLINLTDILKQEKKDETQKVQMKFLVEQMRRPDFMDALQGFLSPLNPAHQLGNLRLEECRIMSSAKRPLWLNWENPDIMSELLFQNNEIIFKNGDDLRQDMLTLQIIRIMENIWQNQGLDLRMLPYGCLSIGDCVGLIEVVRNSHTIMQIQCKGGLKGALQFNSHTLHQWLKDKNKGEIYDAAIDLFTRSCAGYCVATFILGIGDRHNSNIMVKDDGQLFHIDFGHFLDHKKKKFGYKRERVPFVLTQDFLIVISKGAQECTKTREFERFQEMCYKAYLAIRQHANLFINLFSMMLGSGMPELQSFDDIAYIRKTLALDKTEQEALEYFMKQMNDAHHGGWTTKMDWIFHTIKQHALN
- measurementNotes: Inhibition of PI3Kalpha assessed as accumulation of ADP
measureName: IC50 (nM)

Past entries and their recorded results:
>>> experimentalresult("CN(C)CCCNC(=O)c1cn2cc(-c3cnc(N)nc3)nc(N3CCOCC3)c2n1")
0.6
>>> experimentalresult("Nc1ncc(-c2cn3cc(C(=O)NCCN4CCOCC4)nc3c(N3CCOCC3)n2)cn1")
10.4
>>> experimentalresult("CN(C)CCNC(=O)c1cn2cc(-c3cnc(N)nc3)nc(N3CCOCC3)c2n1")
4.6
>>> experimentalresult("COCCCNC(=O)c1cn2cc(-c3cnc(N)nc3)nc(N3CCOCC3)c2n1")
3.2

1. COCCNC(=O)c1cn2c(Cl)c(-c3cnc(N)nc3)nc(N3CCOCC3)c2n1
2. COCCNC(=O)c1cn2cc(-c3cnc(N)nc3)nc(N3CCOCC3)c2n1
3. NC(=O)c1cn2cc(-c3cnc(N)nc3)nc(N3CCOCC3)c2n1
Ascending sort, IC50. Put the labels in the requested order and write them down.
3, 2, 1
